# EXPERIMENTAL SYSTEM: recombinant human HDACs (Homo sapiens)
# TEST DESCRIPTION: HDAC enzymatic assay
# Type: biochemical
# MEASUREMENT SETUP: 5 nM HDAC enzyme, 5 h pre-incubation, 17 h reaction at 25° C.; isoform not given; read-out: IC50
// reported IC50 for each item listed
MEASURED ATTRIBUTE: IC50

1) CN1CC(Cn2ncc3c2CN(C(=O)Nc2nc(-c4ccc(F)cc4)ccc2N)C3)C1
0.5 to 5 µM
2) Nc1ccc(-c2ccc(F)cc2)nc1NC(=O)N1CC2COCC2C1 (stereo not shown)
0.5 to 5 µM
3) Nc1ccc(-c2ccc(F)cc2)nc1NC(=O)N1CCC(C(F)(F)F)C1 (stereo not shown)
0.5 to 5 µM
4) Nc1ccc(-c2ccc(F)cc2)nc1NC(=O)C1[C@H]2CN(C3CCOCC3)C[C@@H]12 (stereo partly shown)
> 5 µM

###

# EXPERIMENTAL SYSTEM: recombinant human HDACs (Homo sapiens)
# TEST DESCRIPTION: HDAC enzymatic assay
# Format: biochemical
# MEASUREMENT SETUP: 5 nM HDAC enzyme, 5 h pre-incubation, 17 h reaction at 25° C.; isoform not given; read-out: IC50
pIC50: −log10 of the molar value.
MEASURED ATTRIBUTE: pIC50

1. Nc1ccc(-c2ccccc2)nc1NC(=O)N1CCn2cncc2C1
< 5.30
2. Nc1ccc(-c2ccc(F)cc2)nc1NC(=O)N1C[C@@H]2[C@H](C1)[C@H]2NC1COC1
< 5.30
3. Nc1ccc(-c2cccnc2)nc1NC(=O)N1Cc2nccnc2C1
5.30 to 6.30
4. COC1CCN(Cc2ccc3c(c2)CN(C(=O)Nc2nc(-c4ccc(F)cc4)ccc2N)C3)C1 (centres unmarked)
6.30 to 7.00
5. CN1CC(N2CC3CN(C(=O)Nc4nc(-c5ccc(F)cc5)ccc4N)CC3C2)C1 (centres unmarked)
5.30 to 6.30
6. Nc1ccc(-n2cccn2)nc1NC(=O)N1CC2CC(N3CC(F)C3)CC2C1 (centres unmarked)
< 5.30
7. CN(C)Cc1ccc(C2CN(C(=O)Nc3nc(-c4ccc(F)cc4)ccc3N)C2)cc1
6.30 to 7.00
8. Cc1cc(F)ccc1-c1ccc(N)c(NC(=O)N2Cc3cnc(CN(C)C)cc3C2)n1
< 5.30

###

# EXPERIMENTAL SYSTEM: recombinant human HDACs (Homo sapiens)
# TEST DESCRIPTION: HDAC enzymatic assay
# Assay type: biochemical
# MEASUREMENT SETUP: 5 nM HDAC enzyme, 5 h pre-incubation, 17 h reaction at 25° C.; isoform not given; read-out: IC50
MEASURED ATTRIBUTE: IC50

1) Nc1ccc(-c2ccc(F)cc2)nc1NC(=O)C1[C@H]2CN(C3COC3)C[C@@H]12 (some centres unmarked)
> 5 µM
2) Nc1ccc(-c2cccs2)nc1NC(=O)N1Cc2cc(CN3CCCC3)cnc2C1
0.1 to 0.5 µM
3) CN1CCC(N2CCC(C(=O)Nc3nc(-c4ccc(F)cc4)ccc3N)CC2)CC1
0.5 to 5 µM
4) CN1CCN(C(=O)Nc2nn(-c3ccccc3)cc2N)CC1
> 5 µM
5) Nc1ccc(-c2ccc(F)cc2)nc1NC(=O)N1Cc2cc(CN3CC(F)(F)C3)cnc2C1
0.5 to 5 µM
6) Nc1ccc(-n2cccn2)nc1NC(=O)N1CC2CN(CCF)CC2C1 (centres unmarked)
> 5 µM
7) CN1CCC(c2ccc3c(c2)CN(C(=O)Nc2nc(-c4ccc(F)cc4)ccc2N)C3)CC1
0.5 to 5 µM
8) Nc1ccc(-c2ccccc2)nc1NC(=O)C1CN(c2ccccn2)C1
> 5 µM
